The measured values listed here are drawn from PubChem BioAssay AID1159580.

Test: chemical genetic growth profiling, strain panel (AID 1159580);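 further: tested at 20 µM; growth read once vehicle control cultures reached saturation at 30 °C; 1 = growth at the plate median or of vehicle wells; lower values mean less growth of the strain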
Conditions: S. cerevisiae deletion strains, growth OD, locus YFR010W, strain ubp6, hits give low values
The campaign covered roughly 5,500 compounds. About 2,000 (36%) were called active. About 18% were inconclusive and are not listed. This is one part of the list. *1 amine or outer side, *2 acyl side, *3 side chain or, on linkers, in order; H or OH if unused. Where a SMILES comes first, the peptide text is derived from it. Bridges are numbered along the chain shown (N, C = ends). [ ]: non-standard residue; d: D form. The star is where a group is joined. ξ: configuration not given here. ΔAla(E,3-NHCONH2) = NC(=O)N/C=C(/N)C(=O)O; X2 = NC1=NCCC(C(N[*:1])C(=O)[*:2])N1; ξβ3hOrn = NCCCC(N)CC(=O)*; Dap = NC[CH](N)C(=O)O
Hi there, I'd appreciate the recorded normalized growth for every entry that follows.
Answer with a number only.

For reference, reported normalized growth for NC[C@H]1O[C@H](O[C@H]2C(O[C@@H]3O[C@H](CO)[C@@H](O)[C@H]3O)[C@@H](O)[C@H](N)C[C@@H]2N)[C@H](N)[C@@H](O)[C@@H]1O (stereo partly drawn) stands at 0.999

Record `O=C(O)c1cc(=O)c2cccc(O)c2[nH]1` . Reported normalized growth: 1.01

Consider CCCCCCCCCCCCCCCCCCOCC(O)CO (stereo not drawn) . Its measured normalized growth is 1.01

response.value for `CC(=O)N[C@@H](Cc1c[nH]c2ccccc12)C(=O)O` (field: normalized growth) = 1

Sure, the documented normalized growth for CC(=O)OCC(=O)[C@@]12OC3(CCCC3)O[C@@H]1CC1C3CCC4=CC(=O)C=C[C@]4(C)[C@@]3(F)[C@@H](O)C[C@@]12C (stereo partly drawn) is 1.02

Please fill in: normalized growth reported for `COc1cnc(NS(=O)(=O)c2ccc(N)cc2)nc1` = 0.989

Note to self: normalized growth recorded for `COc1c2occc2c(OC)c2c(=O)cc(C)oc12` was 0.986

Just so you know, measured normalized growth for `c1ccc([C@H]2CN3CCSC3=N2)cc1` came out at 0.981

The recorded normalized growth for entry `CC[C@@H](CO)NC(=O)[C@@H]1C=C2c3cccc4[nH]cc(c34)C[C@H]2N(C)C1` equals 0.985

Sure, the documented normalized growth for `CN1CCN(CCCN2c3ccccc3Sc3ccc(C(F)(F)F)cc32)CC1` is 0.0817

Form field normalized growth, entry `COc1ccc([C@H]2COc3c(ccc(O)c3OC)C2)c(OC)c1O` : 0.957

The molecule listed as `CC(=O)Oc1cccc2c1C(=O)c1c(OC(C)=O)cc(C(=O)O)cc1C2=O` has a reported normalized growth of 0.943

// sample `COC(=O)[C@]1(C)CC[C@]2(C)CC[C@]3(C)C4=CC=C5C(=CC(=O)C(O)=C5C)[C@]4(C)CC[C@@]3(C)[C@@H]2C1` , its normalized growth was 0.777

For this molecule ( `CN1CCN(CC(=O)N2c3ccccc3C(=O)Nc3cccnc32)CC1` ), measured normalized growth is 1.02

Documented normalized growth of `O=c1oc2c(O)c(O)cc3c(=O)oc4c(O)c(O)cc1c4c23` : 0.713

Entry CC(=O)OC1CCC2(C)C3CC(=O)C4(C)C(CC5OC6(CCC(C)CO6)[C@@H](C)C54)C3CC[C@H]2C1 (stereo partly drawn) — recorded normalized growth = 1

For reference, reported normalized growth for `C=C(C)[C@H]1Cc2c(ccc3c2O[C@@H]2COc4cc(OC)c(OC)cc4[C@@H]2C3=O)O1` stands at 1.01

Entry `CC(=O)OC[C@H]1O[C@@H](Oc2cc(OC(C)=O)c3c(=O)cc(-c4ccc(OC(C)=O)cc4)oc3c2)[C@H](OC(C)=O)[C@@H](OC(C)=O)[C@@H]1OC(C)=O` , normalized growth reported as 0.975

`COc1cc2cc3c4cc(OC)c(OC)cc4cc[n+]3c(C)c2cc1OC` has a reported normalized growth of 1.03

Record `CN1CCN(CCC=C2c3ccccc3Sc3ccc(S(=O)(=O)N(C)C)cc32)CC1` . Reported normalized growth: 0.965

The reported normalized growth of the molecule `c1ccc2c(Cc3c[nH]c4ccccc34)c[nH]c2c1` was 0.836

Lab note: measured normalized growth of CC(=O)Oc1cc2c(c(C)c1OC(C)=O)CC1OC13C2(C)CCC1(C)C2CC(C)(C(=O)O)CCC2(C)CCC13C (stereo not drawn) was 1.03

Entry `CC1=NN(c2ccccc2)C(=O)C1` ; normalized growth = 0.983

So for `COc1cc(/C=C/C(=O)N2CCC=CC2=O)cc(OC)c1OC` , the logged normalized growth turned out to be 0.99

The molecule listed as CC(=O)O[C@H]1CC[C@]2(C)C3CC[C@@]4(C)C(CC5O[C@@]6(CCC(C)CO6)[C@@H](C)C54)C3CC[C@@H]2C1 (stereo partly drawn) has a reported normalized growth of 1.01

Record `COc1cc(O)cc(OC)c1OC` . Reported normalized growth: 0.962

molecule `O=C(O)c1cc(=O)c2c(Cl)cc(Cl)cc2[nH]1` , normalized growth observed: 1.02

Entry NCCCC(N)CC(=O)NCC1NC(=O)C(CO)NC(=O)C(N)CNC(=O)C(C2CCN=C(N)N2)NC(=O)/C(=C\NC(N)=O)NC1=O (stereo not drawn) (H-[Dap]S[Dap](ξβ3hOrn)[ΔAla(E,3-NHCONH2)][X2]; lactam 1-C; configuration not given here) , normalized growth reported as 1.05

Per the record, CC(=O)O[C@@H]1CC[C@]2(C)C3CC[C@]4(C)C(=O)CCC4C3CC[C@H]2C1 (stereo partly drawn) has normalized growth of 0.972

// sample `O=C(OC[C@H]1O[C@H](OC(=O)c2cc(O)c(O)c(OC(=O)c3cc(O)c(O)c(O)c3)c2)[C@H](OC(=O)c2cc(O)c(O)c(OC(=O)c3cc(O)c(O)c(O)c3)c2)[C@@H](OC(=O)c2cc(O)c(O)c(OC(=O)c3cc(O)c(O)c(O)c3)c2)[C@@H]1OC(=O)c1cc(O)c(O)c(OC(=O)c2cc(O)c(O)c(O)c2)c1)c1cc(O)c(O)c(OC(=O)c2cc(O)c(O)c(O)c2)c1` , its normalized growth was 0.701

Please fill in: normalized growth reported for `CCNc1nc(Cl)nc(NCC)n1` = 1

CNC(Cc1c[nH]c2ccccc12)C(=O)O (stereo not drawn) yielded normalized growth of 0.988

// recorded normalized growth for CC(=O)O[C@H]1CC[C@]2(C)C3CC(=O)[C@]4(C)C(C(C)=O)=CCC4C3CC[C@H]2C1 (stereo partly drawn) : 1
